system tested: NMDA receptor (Rattus norvegicus, UniProt P35439+Q00960)
Construct: Membranes were prepared by homogenization of the whole brain minus cerebellum and medulla oblongata
Sequence (Q00960 27-1482, other chains not shown): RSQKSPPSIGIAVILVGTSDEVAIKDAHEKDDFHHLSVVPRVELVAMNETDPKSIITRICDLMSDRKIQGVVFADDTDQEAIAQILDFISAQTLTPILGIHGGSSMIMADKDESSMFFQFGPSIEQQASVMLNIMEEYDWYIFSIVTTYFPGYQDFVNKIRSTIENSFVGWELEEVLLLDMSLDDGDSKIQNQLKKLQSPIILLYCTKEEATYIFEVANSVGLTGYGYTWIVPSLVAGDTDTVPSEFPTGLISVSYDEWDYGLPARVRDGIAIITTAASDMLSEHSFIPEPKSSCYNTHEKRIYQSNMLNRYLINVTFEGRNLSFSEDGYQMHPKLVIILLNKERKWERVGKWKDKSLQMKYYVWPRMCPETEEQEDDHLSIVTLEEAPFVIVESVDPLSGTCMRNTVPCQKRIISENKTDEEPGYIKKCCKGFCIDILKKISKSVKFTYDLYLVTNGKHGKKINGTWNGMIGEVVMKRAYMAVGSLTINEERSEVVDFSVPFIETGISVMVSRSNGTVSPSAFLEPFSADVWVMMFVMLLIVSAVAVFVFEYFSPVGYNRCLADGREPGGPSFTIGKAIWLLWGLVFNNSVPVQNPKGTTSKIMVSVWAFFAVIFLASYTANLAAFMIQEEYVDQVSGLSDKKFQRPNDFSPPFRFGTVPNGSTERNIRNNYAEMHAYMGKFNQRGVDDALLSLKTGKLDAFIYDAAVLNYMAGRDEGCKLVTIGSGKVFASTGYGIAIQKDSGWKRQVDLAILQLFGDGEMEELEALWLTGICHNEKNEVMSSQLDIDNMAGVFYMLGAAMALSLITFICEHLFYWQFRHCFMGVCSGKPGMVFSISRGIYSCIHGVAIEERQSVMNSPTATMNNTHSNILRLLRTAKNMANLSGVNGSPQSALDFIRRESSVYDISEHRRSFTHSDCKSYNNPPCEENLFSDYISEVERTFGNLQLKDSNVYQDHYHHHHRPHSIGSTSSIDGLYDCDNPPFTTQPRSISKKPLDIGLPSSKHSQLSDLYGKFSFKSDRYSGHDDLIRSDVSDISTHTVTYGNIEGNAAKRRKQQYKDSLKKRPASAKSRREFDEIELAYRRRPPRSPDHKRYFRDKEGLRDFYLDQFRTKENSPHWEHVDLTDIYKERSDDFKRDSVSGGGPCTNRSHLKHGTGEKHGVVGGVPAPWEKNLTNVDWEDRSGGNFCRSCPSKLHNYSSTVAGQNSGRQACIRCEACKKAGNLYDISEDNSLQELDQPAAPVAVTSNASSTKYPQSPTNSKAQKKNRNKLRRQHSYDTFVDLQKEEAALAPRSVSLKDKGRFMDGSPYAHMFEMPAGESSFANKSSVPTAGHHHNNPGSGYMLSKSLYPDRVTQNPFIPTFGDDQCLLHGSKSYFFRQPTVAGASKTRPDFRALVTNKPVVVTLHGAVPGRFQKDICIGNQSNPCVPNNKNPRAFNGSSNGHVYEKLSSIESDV
assay info: 3H-[R-(R*,S*)]-a-(4-Hydroxy-phenyl)-b-methyl-4-(phenyl-methyl)-1-piperidine propanol binding (displacement, rat brain membranes)
condition set: displacement of 5 nM 3H-radioligand, rat whole brain membranes minus cerebellum and medulla oblongata, 2 hours at 4° C.
Counter-ions that a name gives are not always drawn.
test readout: IC50 (µM)

A selection of reference data follows.
- compound: "Cc1ccc2c(N3CCc4ccccc4C3)ccnc2c1.Cl [Example 13, hydrochloride]"
  IC50 [µM]: 0.19
- compound: "Cl.O[C@@H]1CCN(c2cc(N3CCc4ccccc4C3)c3ccccc3n2)C1 [Example 4, hydrochloride]"
  IC50 [µM]: 0.17
- compound: "Fc1cccc2c(N3CCc4ccccc4C3)ccnc12 [Example 16, hydrochloride]"
  IC50 [µM]: 0.65
- compound: "OC[C@H]1CCCN1c1cc(N2CCc3ccccc3C2)c2ccccc2n1"
  IC50 [µM]: 0.29

(A) Clc1ccc2c(N3CCc4ccccc4C3)ccnc2c1 [Example 15, hydrochloride]
(B) Fc1ccc2nccc(N3CCc4ccccc4C3)c2c1 [Example 18, hydrochloride]
(C) OCCNc1cc(N2CCc3ccccc3C2)c2ccccc2n1 [Example 2, hydrochloride]
Req: I would appreciate it if you could sort these 3 compounds by IC50, starting from the smallest number. I'd appreciate it if you listed the labels in the requested order.
Resp: C, A, B
(C: 0.058 µM, A: 0.32 µM, B: 0.89 µM)

* * *

// melting point lookup, one value per entry

- compound: "Cl.Clc1ccc2c(c1)CN(c1ccnc3ccccc13)C2"
  result: "270 to 275 °C"
- compound: "Cl.O[C@@H]1CCN(c2cc(N3CCc4ccccc4C3)c3ccccc3n2)C1 [Example 4]"
  result: "270 to 274 °C"
- compound: "COc1cccc2c(N3CCc4ccccc4C3)ccnc12.Cl"
  result: "240 °C"

Req: Sample Cc1cc(N2CCc3ccccc3C2)c2ccccc2n1.Cl — what was its melting point?
Resp: 210 to 211 °C

Req: Repeat with Cc1ccc2c(N3CCc4ccccc4C3)ccnc2c1.Cl [Example 13]
Resp: 251 to 252 °C

Req: Then what about the compound Cl.c1ccc2c(c1)CN(c1ccnc3ccccc13)C2 ?
Resp: 264 to 267 °C

Req: Try the compound OC[C@H]1CCCN1c1cc(N2CCc3ccccc3C2)c2ccccc2n1 [Example 5]
Resp: 74 to 80 °C

Req: Try the compound Cl.c1ccc2c(c1)CCN(c1ccnc3ccccc13)C2
Resp: 200 °C
